The reported numbers originate from paper PMC9459959.

Target: HPPD (p-hydroxyphenylpyruvate dioxygenase) (Arabidopsis thaliana, UniProt P93836)
Construct: gene HPD; recombinant, overexpressed in E. coli, tested in total soluble protein extract; 1SP9 given only as docking structure
Test: HPLC of homogentisate formed ([…] nm), dose-response
Type: biochemical
Details: 15 min incubation; slow tight-binding class; E. coli total soluble protein extract; positive control; read-out: I50app
Property Measured: IC50
Kindly write the number and append the unit.

Ask: Entry CS(=O)(=O)c1ccc(C(=O)C2C(=O)CCCC2=O)c(Cl)c1 [sulcotrione, reference compound] needs its IC50 filled in; supply it.
Result: 250 nM

* * *

Biological target: HPPD (p-hydroxyphenylpyruvate dioxygenase) (Arabidopsis thaliana)
Construct: gene HPD; recombinant, overexpressed in E. coli, tested in total soluble protein extract; 1SP9 given only as docking structure
Experiment: HPLC of homogentisate formed ([…] nm), dose-response
Format: biochemical
Details: read-out: I50 (μM) ^ab
Property Measured: log10 of IC50 (log10 of the value in µM)
Would you kindly interpret these values as log10 of IC50 expressed in µM?

In the examples that follow, each entry is paired with its recorded log10 of IC50.
>  <Compound>
O=C(C=Cc1ccccc1)C1C(=O)CCCC1=O

>  <Target>
HPPD (p-hydroxyphenylpyruvate dioxygenase) (Arabidopsis thaliana)

>  <log10 of IC50>
0.73

$$$$
>  <Compound>
Cc1ccccc1C=CC(=O)C1C(=O)CCCC1=O

>  <Target>
HPPD (p-hydroxyphenylpyruvate dioxygenase) (Arabidopsis thaliana)

>  <log10 of IC50>
0.08

$$$$
>  <Compound>
CC(=O)CCCC(=O)C1C(=O)CCCC1=O

>  <Target>
HPPD (p-hydroxyphenylpyruvate dioxygenase) (Arabidopsis thaliana)

>  <log10 of IC50>
0.98

$$$$
>  <Compound>
COc1ccc(CCC(=O)C2C(=O)CC(C)(C)CC2=O)cc1 [11e]

>  <Target>
HPPD (p-hydroxyphenylpyruvate dioxygenase) (Arabidopsis thaliana)

>  <log10 of IC50>
1.11

$$$$
>  <Compound>
COc1ccc(C=CC(=O)C2C(=O)CCCC2=O)cc1 [11a]

>  <Target>
HPPD (p-hydroxyphenylpyruvate dioxygenase) (Arabidopsis thaliana)

>  <log10 of IC50>
1.09

$$$$

Ask: Entry COc1cccc(C=CC(=O)C2C(=O)CCCC2=O)c1 [10a] needs its log10 of IC50 filled in; supply it.
Result: -0.05

Ask: Entry CCCCCCCCCC(=O)C1C(=O)CCCC1=O needs its log10 of IC50 filled in; supply it.
Result: -0.34

Ask: Entry CCCCCCCCCCCCCCCCC(=O)C1C(=O)CCCC1=O needs its log10 of IC50 filled in; supply it.
Result: 0.20

Ask: Entry CCCCCCCCCCCC(=O)C1C(=O)CCCC1=O needs its log10 of IC50 filled in; supply it.
Result: -0.52

Ask: Entry CC1(C)CC(=O)C(C(=O)CCc2ccccc2)C(=O)C1 needs its log10 of IC50 filled in; supply it.
Result: 0.34

Ask: Entry COc1cccc(C=CC(=O)C2C(=O)CC(C)(C)CC2=O)c1 [10c] needs its log10 of IC50 filled in; supply it.
Result: 0.81

Ask: Entry CCCC(=O)C1C(=O)CC(C)(C)CC1=O needs its log10 of IC50 filled in; supply it.
Result: 1.22

Ask: Entry CCCC(=O)C1C(=O)CCCC1=O needs its log10 of IC50 filled in; supply it.
Result: 1.55

Ask: Entry CCCCCCCCCCCC(=O)C1C(=O)CC(C)(C)CC1=O needs its log10 of IC50 filled in; supply it.
Result: -0.11

Ask: Entry COc1cc(C=CC(=O)C2C(=O)CC(C)(C)CC2=O)cc(OC)c1OC [14c] needs its log10 of IC50 filled in; supply it.
Result: 0.35

Ask: Entry COc1cccc(CCC(=O)C2C(=O)CCCC2=O)c1 [10b] needs its log10 of IC50 filled in; supply it.
Result: -0.51

Ask: Entry CC(=O)CCCC(=O)C1C(=O)CC(C)(C)CC1=O needs its log10 of IC50 filled in; supply it.
Result: 1.24

Ask: Entry CN(C)c1ccc(CCC(=O)C2C(=O)CCCC2=O)cc1 [15b] needs its log10 of IC50 filled in; supply it.
Result: 0.65

Ask: Entry CCCCCCCCCCCCCCCCC(=O)C1C(=O)CC(C)(C)CC1=O needs its log10 of IC50 filled in; supply it.
Result: 0.23

* * *

IC50 by entry:
Molecular target: HPPD (p-hydroxyphenylpyruvate dioxygenase) (Arabidopsis thaliana)
Construct: gene HPD; recombinant, overexpressed in E. coli, tested in total soluble protein extract; 1SP9 given only as docking structure
Sequence (P93836 1-445): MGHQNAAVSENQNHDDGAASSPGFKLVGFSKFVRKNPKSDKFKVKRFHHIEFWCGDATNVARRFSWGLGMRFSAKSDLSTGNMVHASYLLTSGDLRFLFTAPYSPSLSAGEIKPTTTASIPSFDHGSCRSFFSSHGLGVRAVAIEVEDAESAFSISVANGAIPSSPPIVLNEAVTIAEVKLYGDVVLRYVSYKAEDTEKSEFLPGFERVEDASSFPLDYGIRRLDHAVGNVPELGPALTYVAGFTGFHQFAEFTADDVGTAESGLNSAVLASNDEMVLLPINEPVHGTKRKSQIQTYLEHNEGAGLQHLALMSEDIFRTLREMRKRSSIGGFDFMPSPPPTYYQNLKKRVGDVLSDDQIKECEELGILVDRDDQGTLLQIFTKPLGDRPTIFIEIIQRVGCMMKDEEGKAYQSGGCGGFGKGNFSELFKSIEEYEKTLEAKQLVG
Assay: HPLC of homogentisate formed ([…] nm), dose-response
Type: biochemical
Conditions: read-out: I50 (μM) ^ab

In the examples that follow, each entry is paired with its recorded IC50.
>  <Compound>
CCCCCCCCCCCc1noc2c1C(=O)CCC2 [5a]

>  <IC50>
> 100 µM

$$$$
>  <Compound>
COc1cccc(CCC(=O)C2C(=O)CC(C)(C)CC2=O)c1 [10d]

>  <IC50>
1.5 µM

$$$$
>  <Compound>
O=C(C=Cc1ccc([N+](=O)[O-])cc1)C1C(=O)CCCC1=O [19a]

>  <IC50>
7.61 µM

$$$$
>  <Compound>
CC(=O)C1C(=O)CC(C)(C)CC1=O [1f]

>  <IC50>
53.1 µM

$$$$
>  <Compound>
CC1(C)CC(=O)C(C(=O)CCc2ccc(Cl)cc2)C(=O)C1 [16d]

>  <IC50>
2.05 µM

$$$$

Ask: Entry CC1(C)CC(=O)C(C(=O)C=Cc2cccc(Br)c2)C(=O)C1 [18b] needs its IC50 filled in; supply it.
Result: 2.42 µM

Ask: Entry COc1ccc(C=CC(=O)C2C(=O)CC(C)(C)CC2=O)cc1OC [12c] needs its IC50 filled in; supply it.
Result: 14.1 µM

Ask: Entry CCCCCC(=O)C1C(=O)CCCC1=O [3b] needs its IC50 filled in; supply it.
Result: 2.93 µM

Ask: Entry CC1(C)CC(=O)C(C(=O)C=Cc2ccc(Br)cc2)C(=O)C1 [17c] needs its IC50 filled in; supply it.
Result: 8.34 µM

Ask: Entry Cc1noc2c1C(=O)CCC2 [1a] needs its IC50 filled in; supply it.
Result: > 100 µM

* * *

Molecular target: HPPD (p-hydroxyphenylpyruvate dioxygenase) (Arabidopsis thaliana)
Construct: gene HPD; recombinant, overexpressed in E. coli, tested in total soluble protein extract; 1SP9 given only as docking structure
Test: HPLC of homogentisate formed ([…] nm), dose-response
Format: biochemical
Conditions: read-out: I50 (μM) ^ab
Please assign Not fulfilled whenever IC50 is at or above 4 µM, and Fulfilled whenever it is below.

Ask: Quick check: IC50 of O=C(/C=C/c1ccccc1)C1=C(O)C(O)CCC1=O (stereo not drawn) [8c] under 4 µM?
Result: Not fulfilled

Ask: Quick check: IC50 of CC1(C)CC(=O)C(C(=O)C=Cc2ccccc2)C(=O)C1 [8d] under 4 µM?
Result: Not fulfilled

Ask: Quick check: IC50 of O=C1CCCC(=O)C1C(=O)CCc1ccc(Cl)cc1 [16b] under 4 µM?
Result: Fulfilled

Ask: Quick check: IC50 of COc1ccc(CCC(=O)C2=C(O)C(O)CCC2=O)cc1 (stereo not drawn) [11c] under 4 µM?
Result: Not fulfilled

Ask: Quick check: IC50 of CC1(C)CC(=O)C(C(=O)C=Cc2ccc([N+](=O)[O-])cc2)C(=O)C1 [19b] under 4 µM?
Result: Not fulfilled

* * *

Target: HPPD (p-hydroxyphenylpyruvate dioxygenase) (Arabidopsis thaliana, UniProt P93836)
Construct: gene HPD; recombinant, overexpressed in E. coli, tested in total soluble protein extract; 1SP9 given only as docking structure
Sequence (P93836 1-445): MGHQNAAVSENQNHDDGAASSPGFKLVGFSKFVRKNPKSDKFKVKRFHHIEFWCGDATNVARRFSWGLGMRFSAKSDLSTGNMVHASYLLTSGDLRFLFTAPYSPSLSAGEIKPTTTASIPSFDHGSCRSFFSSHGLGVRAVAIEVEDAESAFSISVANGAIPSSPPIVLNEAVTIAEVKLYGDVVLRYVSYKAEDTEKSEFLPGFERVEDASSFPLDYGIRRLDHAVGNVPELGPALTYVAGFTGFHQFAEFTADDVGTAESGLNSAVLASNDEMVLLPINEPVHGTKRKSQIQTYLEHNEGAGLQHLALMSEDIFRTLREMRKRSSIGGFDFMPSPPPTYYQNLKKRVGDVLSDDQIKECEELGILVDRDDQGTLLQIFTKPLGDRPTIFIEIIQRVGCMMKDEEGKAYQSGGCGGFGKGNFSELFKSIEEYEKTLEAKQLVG
Assay: HPLC of homogentisate formed ([…] nm), dose-response
Type: biochemical
Settings: read-out: I50 (μM) ^ab
IC50 by entry:

In the examples that follow, each entry is paired with its recorded IC50.
>  <Molecule>
CCCCCCCCCCCc1noc2c1C(=O)C(O)C(C)(C)C2 (centres unmarked)

>  <IC50>
> 100 µM

$$$$
>  <Molecule>
Cc1noc2c1C(=O)C(O)CC2 (centres unmarked)

>  <IC50>
> 100 µM

$$$$
>  <Molecule>
Cc1noc2c1C(=O)CC(C)(C)C2

>  <IC50>
> 100 µM

$$$$
>  <Molecule>
CCCCCCCCCc1noc2c1C(=O)CCC2

>  <IC50>
> 100 µM

$$$$

Proceed to the following item.
Ask: Entry CCCCCCCCCCCc1noc2c1C(=O)C(O)CC2 (centres unmarked) needs its IC50 filled in; supply it.
Result: > 100 µM
